Every entry's value here was drawn from ChEMBL document CHEMBL5360657.

# system-tested: Toll-like receptor 4 (Mus musculus, UniProt Q9QUK6)
# Sequence (Q9QUK6 whole entry): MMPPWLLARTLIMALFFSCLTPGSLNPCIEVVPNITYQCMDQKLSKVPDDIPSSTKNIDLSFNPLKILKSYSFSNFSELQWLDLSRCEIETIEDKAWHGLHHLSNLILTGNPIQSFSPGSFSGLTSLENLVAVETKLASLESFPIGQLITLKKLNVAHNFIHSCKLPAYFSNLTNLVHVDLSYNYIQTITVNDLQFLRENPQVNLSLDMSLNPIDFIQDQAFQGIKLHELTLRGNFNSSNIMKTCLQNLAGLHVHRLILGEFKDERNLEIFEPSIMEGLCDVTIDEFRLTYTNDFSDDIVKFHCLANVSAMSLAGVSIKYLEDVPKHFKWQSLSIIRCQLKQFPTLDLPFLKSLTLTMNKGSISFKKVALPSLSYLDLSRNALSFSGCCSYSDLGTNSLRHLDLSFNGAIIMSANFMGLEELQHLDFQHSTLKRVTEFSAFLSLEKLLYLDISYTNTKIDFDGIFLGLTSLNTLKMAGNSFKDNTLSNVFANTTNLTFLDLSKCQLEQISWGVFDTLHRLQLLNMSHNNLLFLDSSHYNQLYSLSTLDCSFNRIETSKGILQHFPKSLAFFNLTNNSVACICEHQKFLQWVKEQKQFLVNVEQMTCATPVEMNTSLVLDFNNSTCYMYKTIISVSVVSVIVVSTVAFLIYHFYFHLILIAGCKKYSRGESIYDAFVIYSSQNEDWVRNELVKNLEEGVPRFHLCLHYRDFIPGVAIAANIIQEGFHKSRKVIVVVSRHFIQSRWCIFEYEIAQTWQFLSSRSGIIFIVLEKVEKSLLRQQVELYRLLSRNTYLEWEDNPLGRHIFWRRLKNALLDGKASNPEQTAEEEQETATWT
# measurement-protocol: Antagonist activity at TLR4 in mouse Whole blood cell assessed as reduction in IL-6 level measured after 20 hrs by HTRF method
# Assay type: tissue-based
pIC50: −log10 of the molar value.
assay-metric: pIC50

Task item: Looking for the measured pIC50 of Cc1cc(N2CCc3c(c(C)nn3CC34CCC(NC(=O)[C@@H]5COCCN5)(CC3)CC4)C2)c2cnn(C)c2n1 , can you help?
Reply: < 5.00

###

# measurement-protocol: AUC in mouse at 1 mg/ml, po
# Assay type: ADME
# Design: dose 1 mg/ml, route po
# measurement-setup: in vivo
Catalogue of compounds with associated AUC
Answer by giving the amount and then stating its unit.

Worked examples, 2 compounds total:
[[record]]
mol_smiles = "Cc1cc(N2CCc3c(c(C)nn3CC34CCC(NC(=O)[C@@H]5COCCN5)(CC3)CC4)C2)c2cnn(C)c2n1"
assay_metric = "AUC"
recorded_value = "9.16 µM·h"

[[record]]
mol_smiles = "CCNCC(=O)NC12CCC(Cn3nc(C)c4c3CCN(c3cc(C)nc5c3cnn5C)C4)(CC1)CC2"
assay_metric = "AUC"
recorded_value = "4.63 µM·h"


Below: the item to evaluate.
Task item: Could you tell me which AUC is on file for CN[C@@H](C)C(=O)NC12CCC(Cn3nc(C)c4c3CCN(c3cc(C)nc5c3cnn5C)C4)(CC1)CC2 ?
Reply: 2.34 µM·h
